- Target Or System: D(3) dopamine receptor (Homo sapiens, UniProt P35462)
- Sequence (P35462 whole entry): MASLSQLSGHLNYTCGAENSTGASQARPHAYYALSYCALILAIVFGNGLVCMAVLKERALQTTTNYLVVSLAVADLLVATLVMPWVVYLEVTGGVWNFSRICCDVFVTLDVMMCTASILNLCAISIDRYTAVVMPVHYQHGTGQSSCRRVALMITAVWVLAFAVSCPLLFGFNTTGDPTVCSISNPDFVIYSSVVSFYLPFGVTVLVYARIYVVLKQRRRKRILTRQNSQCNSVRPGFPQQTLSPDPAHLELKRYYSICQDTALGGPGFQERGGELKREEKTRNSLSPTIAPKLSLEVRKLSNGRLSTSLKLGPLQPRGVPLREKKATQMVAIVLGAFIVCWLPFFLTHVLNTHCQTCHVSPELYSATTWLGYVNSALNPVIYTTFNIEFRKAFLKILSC
Measured Attribute: pKi
Quick note: pKi values are minus log10 of concentrations in mol/L.

-- ask Reported pKi for `O=c1oc2cc(O)ccc2c2c1CN(Cc1ccc(Cl)cc1)CC2` : what is it?
-- reply 6.50

###

- Target Or System: D(4) dopamine receptor (Homo sapiens) (UniProt P21917)
- Sequence (whole entry): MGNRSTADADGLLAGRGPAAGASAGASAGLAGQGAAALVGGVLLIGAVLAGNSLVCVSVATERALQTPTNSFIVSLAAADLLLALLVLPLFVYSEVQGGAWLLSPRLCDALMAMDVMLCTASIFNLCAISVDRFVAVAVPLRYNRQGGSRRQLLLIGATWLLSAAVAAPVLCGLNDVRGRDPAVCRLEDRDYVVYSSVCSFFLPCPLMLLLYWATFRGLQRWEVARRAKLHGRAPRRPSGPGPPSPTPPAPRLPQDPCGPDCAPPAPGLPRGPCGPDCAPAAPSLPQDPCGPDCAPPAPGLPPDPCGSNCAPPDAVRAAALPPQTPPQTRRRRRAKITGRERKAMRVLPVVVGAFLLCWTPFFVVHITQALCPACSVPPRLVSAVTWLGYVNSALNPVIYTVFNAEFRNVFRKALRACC
- Assay Method Text: Inhibition of mitogenic [3H]thymidine uptake in CHO 10001 cells expressing Dopamine receptor D4
- Assay type: functional, cell-based
Binarize Intrinsic activity at 10%; below is Criterion met, at or above is Criterion not met.

-- ask In the record for `COc1ccc2c3c(c(=O)oc2c1)CN(Cc1ccc(F)cc1)CC3` , is Intrinsic activity less than 10%?
-- reply Criterion not met

-- ask Intrinsic activity under 10%? Item: `COc1ccc2c3c(c(=O)oc2c1)CN(Cc1ccc(C(F)(F)F)cc1)CC3`
-- reply Criterion met

-- ask Dear colleague, could you confirm whether Intrinsic activity of `COc1ccc2c3c(c(=O)oc2c1)CN(Cc1ccc([N+](=O)[O-])cc1)CC3` falls below 10%? Thanks.
-- reply Criterion not met

-- ask Consider `Cc1ccc2c3c(c(=O)oc2c1)CN(Cc1ccc(F)cc1)CC3` . Does its Intrinsic activity lie strictly below 10%?
-- reply Criterion met

-- ask Item `Cc1ccc2c3c(c(=O)oc2c1)CN(Cc1ccccc1)CC3` : Intrinsic activity beneath 10%, strictly?
-- reply Criterion not met

-- ask Does this compound meet the criterion Intrinsic activity < 10%? `COc1ccc2c3c(c(=O)oc2c1)CN(Cc1ccc(Cl)cc1)CC3`
-- reply Criterion not met

-- ask Regarding `COc1ccc2c3c(c(=O)oc2c1)CN(Cc1cccc(Cl)c1)CC3` , kindly confirm whether its Intrinsic activity is beneath 10%.
-- reply Criterion not met

-- ask Hello, is Intrinsic activity of the following compound strictly smaller than 10%? `COc1ccc2c3c(c(=O)oc2c1)CN(Cc1ccccc1)CC3`
-- reply Criterion not met

-- ask Is Intrinsic activity strictly under 10% for the entry `COc1cc2oc(=O)c3c(c2cc1OC)CCN(Cc1ccc(Cl)cc1)C3` ?
-- reply Criterion not met

-- ask Lab log: compare recorded Intrinsic activity with 10%; is it strictly lower for `O=c1oc2cc(O)ccc2c2c1CN(Cc1ccc(Cl)cc1)CC2` ?
-- reply Criterion not met

All values here come from ChEMBL document CHEMBL1130121.
